The values you see were collected from ChEMBL document CHEMBL3797096.

What Activity was measured for each of the following?
- Tested on: MCF7
- experimental details: Cytotoxicity against human MCF7 cells assessed as cell death at 100 ug/ml after 72 hrs by MTT assay
- Format: functional
Answers are plain numbers, in %.

Below are worked cases with known answers.
CCCC(O)C#CCO (stereo not drawn) : 100
CC(O)CC#CCO (stereo not drawn) : 0
CCC(O)C#CCO (stereo not drawn) : 100
CC[C@H](O)C#CCO : 51.6
CCCCCC(O)C#CCO (stereo not drawn) : 100

Report Activity for each item below.
1. CCC(C)(O)C#CCO (stereo not drawn)
2. CC(O)C#CC(O)(c1ccccc1)c1ccccc1 (stereo not drawn)
3. CC[C@@H](O)C#CCO
4. CC(C)C(O)C#CC(C)(C)O (stereo not drawn)

Outgoing:
[27.2, 27.3, 52.5, 40.7]

Report Activity for every entry below.
1. CC(O)CC#CCCO (stereo not drawn)
2. CC(C)C(O)C#CCCO (stereo not drawn)
3. CC(O)C#CCO (stereo not drawn)
4. CC(O)C#CC1(O)CCCCC1 (stereo not drawn)
5. COc1cccc2c1C(=O)c1c(O)c3c(c(O)c1C2=O)C[C@@](O)(C(=O)CO)C[C@@H]3O[C@H]1C[C@H](N)[C@H](O)[C@H](C)O1 [DOXORUBICIN]
6. CC(O)C#CCCO (stereo not drawn)
7. CCC(O)C#CCCO (stereo not drawn)

Outgoing:
1. 69.5
2. 54.1
3. 100
4. 40.8
5. 74.8
6. 17.8
7. 34.3

For each listed entry, give its Activity.
1. OCC#CC(O)c1ccccc1 (stereo not drawn)
2. CC(C)C(O)C#CCO (stereo not drawn)

Outgoing:
68.1
28.7
